- TEST DETAILS: Stability analysis of DDD599/BPCA (pH buffers, simulated gastric fluid, glutathione)
- Format: physicochemical
- COND: Britton Robinson pH4 buffer, pH 4
QUANTITY: remaining at 24 h (%)
Report only the number, with the unit % understood.

Ask: Give recorded remaining at 24 h. O=C(CCl)Nc1ccc(Br)cc1 [BPCA, N-(4-bromophenyl)-2-chloroacetamide]
Result: 100

----------
What log10 IC50 was measured for each of the following?
- Tested on: P. falciparum stage V male gametocytes (male gamete formation)
- TEST DETAILS: P. falciparum dual gamete formation assay (Pf DGFA), male readout (exflagellation), 48 h carry-over format
- Type: cell-based, Plasmodium falciparum NF54
- COND: Plasmodium falciparum, 48 h, dose response retest of primary hits, 48 h incubation; read-out: Male IC50
Answers are given as log10 of IC50 in nM.

Ask: Give recorded log10 IC50. O=S(=O)(NCC1(O)CCOc2ccccc21)c1ccc(Cl)s1 (stereo not drawn) [DDD01028075]
Result: 2.65

Ask: Give recorded log10 IC50. CC(c1ccco1)N(C(=O)CNc1ccc(C#N)cc1)C1CC1 (stereo not drawn) [DDD01062645]
Result: 2.63

Ask: Give recorded log10 IC50. O=S(=O)(NCC1(O)CCOc2ccccc21)c1ccccc1F (stereo not drawn) [DDD01028073]
Result: 2.46

Ask: Give recorded log10 IC50. O=C(C1CC2(CCNCC2)CN1)N1CCN(c2cccc(Cl)c2Cl)CC1 (stereo not drawn) [DDD01243908]
Result: 3.63

Ask: Give recorded log10 IC50. CC(c1cccs1)N(C)Cc1cnc(-c2ccccn2)nc1 (stereo not drawn) [DDD01246628]
Result: 3.40

Ask: Give recorded log10 IC50. CN1CCC(NCC(O)c2cccc(OCc3ccccc3)c2)CC1 (stereo not drawn) [DDD01079164]
Result: 3.76
